Cited source for all entries: ChEMBL document CHEMBL3351639

// Ki collected for Alpha-2A adrenergic receptor (Homo sapiens)
Please respond with the number in nM and leave the unit unwritten.

>>> value("Fc1cccc2cnn(N=C3NCCN3)c12")
65

Req: If you can, please state the reported Ki value of `Fc1ccc2cnn(N=C3NCCN3)c2c1` .
Resp: 33

Req: If you can, please state the reported Ki value of c1ccc2c(c1)cnn2N=C1NCCN1 [MARSANIDINE] .
Resp: 52

###

Each entry below carries its recorded log10 of Ki.
- SYSTEM_UNDER_TEST: Adrenergic receptor alpha-1 (Rattus norvegicus, UniProt P15823+P23944+P43140)
- Sequence (P15823 whole entry): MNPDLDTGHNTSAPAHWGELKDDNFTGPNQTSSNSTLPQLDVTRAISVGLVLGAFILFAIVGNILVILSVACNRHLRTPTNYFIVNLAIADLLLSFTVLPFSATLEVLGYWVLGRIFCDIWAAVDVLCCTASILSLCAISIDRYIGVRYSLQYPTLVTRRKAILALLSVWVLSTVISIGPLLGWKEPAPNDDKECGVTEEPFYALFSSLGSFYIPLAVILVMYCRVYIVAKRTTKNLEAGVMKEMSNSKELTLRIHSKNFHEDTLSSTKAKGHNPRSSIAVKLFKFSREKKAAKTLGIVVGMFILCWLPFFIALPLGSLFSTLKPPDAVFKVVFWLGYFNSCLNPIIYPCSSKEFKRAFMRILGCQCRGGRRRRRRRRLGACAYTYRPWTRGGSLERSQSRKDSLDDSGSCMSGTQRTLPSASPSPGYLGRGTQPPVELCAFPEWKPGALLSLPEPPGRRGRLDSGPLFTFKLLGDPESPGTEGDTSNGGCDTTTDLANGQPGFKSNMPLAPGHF
- Sequence (P23944 whole entry): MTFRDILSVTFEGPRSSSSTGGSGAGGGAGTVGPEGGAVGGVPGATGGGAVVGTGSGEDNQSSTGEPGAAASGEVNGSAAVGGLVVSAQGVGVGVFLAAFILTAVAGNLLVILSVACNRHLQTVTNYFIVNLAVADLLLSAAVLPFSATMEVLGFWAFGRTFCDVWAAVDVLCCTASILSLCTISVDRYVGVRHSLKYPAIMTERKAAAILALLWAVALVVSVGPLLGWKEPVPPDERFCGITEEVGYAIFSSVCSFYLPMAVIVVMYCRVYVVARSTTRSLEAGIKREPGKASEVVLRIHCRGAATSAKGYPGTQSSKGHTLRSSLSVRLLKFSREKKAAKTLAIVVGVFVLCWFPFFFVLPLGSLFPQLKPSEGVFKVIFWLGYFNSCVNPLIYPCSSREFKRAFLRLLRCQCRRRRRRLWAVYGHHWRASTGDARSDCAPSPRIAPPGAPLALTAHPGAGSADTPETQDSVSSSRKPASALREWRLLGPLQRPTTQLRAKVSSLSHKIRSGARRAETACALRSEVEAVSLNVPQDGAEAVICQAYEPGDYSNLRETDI
- Sequence (P43140 whole entry): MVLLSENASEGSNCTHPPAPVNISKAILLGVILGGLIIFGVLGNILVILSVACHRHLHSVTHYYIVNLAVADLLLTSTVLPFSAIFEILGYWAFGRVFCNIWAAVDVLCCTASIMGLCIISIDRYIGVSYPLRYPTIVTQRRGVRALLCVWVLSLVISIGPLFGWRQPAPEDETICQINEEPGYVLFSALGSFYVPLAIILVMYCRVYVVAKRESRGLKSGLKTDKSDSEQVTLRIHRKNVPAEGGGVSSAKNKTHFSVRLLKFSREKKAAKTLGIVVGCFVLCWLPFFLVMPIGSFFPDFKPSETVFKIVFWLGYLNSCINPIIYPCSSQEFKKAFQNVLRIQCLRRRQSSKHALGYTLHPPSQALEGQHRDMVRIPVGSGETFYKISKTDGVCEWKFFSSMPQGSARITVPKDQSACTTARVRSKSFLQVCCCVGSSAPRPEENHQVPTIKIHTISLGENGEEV
- ASSAY_NAME: Displacement of [3H]prazosin from alpha1-adrenoceptor in Sprague-Dawley rat brain membranes after 45 mins by liquid scintillation counting
- Assay type: cell membranes, Membrane
Units before log transform: µM; reported quantity: Ki; transform: log10.

>>> value("Fc1cccc2cnn(N=C3NCCN3)c12")
0.21
>>> value("Fc1c(F)c(F)c2c(cnn2N=C2NCCN2)c1F")
1.30
>>> value("Fc1cccc2c1cnn2CC1=NCCN1")
-0.27
>>> value("Fc1ccc2c(cnn2CC2=NCCN2)c1")
-0.32
>>> value("Fc1cccc2c1cnn2N=C1NCCN1")
0.58
>>> value("Fc1ccc2cnn(CC3=NCCN3)c2c1")
-0.29

Req: If you can, please state the reported log10 of Ki value of `Fc1ccc2cnn(N=C3NCCN3)c2c1` .
Resp: -0.04

Req: If you can, please state the reported log10 of Ki value of `Fc1ccc2c(cnn2N=C2NCCN2)c1` .
Resp: 0.37
